Consider the following compounds; for each one, report its IC50.
- Test system: KLE
- EXPERIMENTAL_DETAILS: MTT cytotoxicity assay, KLE
- MEASUREMENT_SETUP: read-out: cytotoxicity IC50 KLE, Tables 3A/4B/4C
Please give a number only; it is taken to be in nM.

Query block: // IC50 lookup, key: C[C@H]1/C(=C\c2ccc([N+](=O)[O-])cc2)C(=O)/C(=C/c2ccc([N+](=O)[O-])cc2)CN1C(=O)[C@@H](N)Cc1ccccc1
Result block: 1460

Query block: // IC50 lookup, key: N[C@@H](Cc1ccccc1)C(=O)N1C/C(=C\c2ccc([N+](=O)[O-])cc2)C(=O)/C(=C/c2ccc([N+](=O)[O-])cc2)C1 [RA183, reference compound]
Result block: 989

Query block: // IC50 lookup, key: CC1/C(=C\c2ccc([N+](=O)[O-])cc2)C(=O)/C(=C/c2ccc([N+](=O)[O-])cc2)CN1C(=O)[C@H](Cc1ccccc1)NC(=O)CCl (stereo partly drawn)
Result block: 1120

Query block: // IC50 lookup, key: CC(C)C[C@H](NC(=O)[C@H](Cc1ccccc1)NC(=O)c1cnccn1)B(O)O [Bortezomib, bortezomib, reference compound]
Result block: 1190

Query block: // IC50 lookup, key: N[C@@H](Cc1ccccc1)C(=O)N1C/C(=C\c2ccc(Cl)c(Cl)c2)C(=O)/C(=C/c2ccc(Cl)c(Cl)c2)C1 [RA190, reference compound]
Result block: 1590

Query block: // IC50 lookup, key: C[C@@H]1/C(=C\c2ccc([N+](=O)[O-])cc2)C(=O)/C(=C/c2ccc([N+](=O)[O-])cc2)CN1C(=O)[C@@H](N)Cc1ccccc1 [RA413R]
Result block: 1430

###

Consider the following molecules; for each one, report its IC50.
- System: OVCAR3
- EXPERIMENTAL_DETAILS: MTT cytotoxicity assay, OVCAR3
- MEASUREMENT_SETUP: read-out: cytotoxicity IC50 OVCAR3; Tables 3A/4B/4C; MTT assay

Query block: // IC50 lookup, key: N[C@@H](Cc1ccccc1)C(=O)N1C/C(=C\c2ccc(Cl)c(Cl)c2)C(=O)/C(=C/c2ccc(Cl)c(Cl)c2)C1 [RA190, reference compound]
Result block: 120 nM

Query block: // IC50 lookup, key: CC1/C(=C\c2ccc([N+](=O)[O-])cc2)C(=O)/C(=C/c2ccc([N+](=O)[O-])cc2)CN1C(=O)[C@H](Cc1ccccc1)NC(=O)CCl (stereo partly drawn)
Result block: < 20 nM

Query block: // IC50 lookup, key: N[C@@H](Cc1ccccc1)C(=O)N1C/C(=C\c2ccc([N+](=O)[O-])cc2)C(=O)/C(=C/c2ccc([N+](=O)[O-])cc2)C1 [RA183, reference compound]
Result block: 78 nM

Query block: // IC50 lookup, key: CC1/C(=C\c2ccccc2F)C(=O)/C(=C/c2ccccc2F)CN1C(=O)[C@@H](N)Cc1ccccc1 (mixture of isomers)
Result block: 120 nM

Query block: // IC50 lookup, key: CC(C)C[C@H](NC(=O)[C@H](Cc1ccccc1)NC(=O)c1cnccn1)B(O)O [Bortezomib, bortezomib, reference compound]
Result block: 30 nM

Query block: // IC50 lookup, key: CC1/C(=C\c2ccc(F)cc2)C(=O)/C(=C/c2ccc(F)cc2)CN1C(=O)[C@@H](N)Cc1ccccc1 (mixture of isomers)
Result block: 105 nM

###

Here's a batch of compounds along with measured pIC50 for SKOV3.
# pIC50 is unitless: minus log10 of the molar concentration; print number only

Query block: // pIC50 lookup, key: C=CC(=O)N1CC/C(=C\c2ccc(F)c([N+](=O)[O-])c2)C(=O)/C(=C/c2ccc(F)c([N+](=O)[O-])c2)C1
Result block: 6.89

Query block: // pIC50 lookup, key: C[C@@H]1/C(=C\c2ccc([N+](=O)[O-])cc2)C(=O)/C(=C/c2ccc([N+](=O)[O-])cc2)CN1C(=O)[C@@H](N)Cc1ccccc1 [RA413R]
Result block: 6.79

###

- Tested on: A2780
- EXPERIMENTAL_DETAILS: MTT cytotoxicity assay, A2780
- MEASUREMENT_SETUP: read-out: cytotoxicity IC50 A2780; Tables 3A/4B/4C; MTT assay
METRIC_NAME: IC50 (nM)
Please give a number only; it is taken to be in nM.

Query block: // IC50 lookup, key: N[C@@H](Cc1ccccc1)C(=O)N1C/C(=C\c2ccc([N+](=O)[O-])cc2)C(=O)/C(=C/c2ccc([N+](=O)[O-])cc2)C1 [RA183, reference compound]
Result block: 161

Query block: // IC50 lookup, key: CC1/C(=C\c2ccc([N+](=O)[O-])cc2)C(=O)/C(=C/c2ccc([N+](=O)[O-])cc2)CN1C(=O)[C@H](Cc1ccccc1)NC(=O)CCl (stereo partly shown)
Result block: 3.5

Query block: // IC50 lookup, key: CC(C)C[C@H](NC(=O)[C@H](Cc1ccccc1)NC(=O)c1cnccn1)B(O)O [Bortezomib, bortezomib, reference compound]
Result block: 3

Query block: // IC50 lookup, key: N[C@@H](Cc1ccccc1)C(=O)N1C/C(=C\c2ccc(Cl)c(Cl)c2)C(=O)/C(=C/c2ccc(Cl)c(Cl)c2)C1 [RA190, reference compound]
Result block: 139

###

- System: MCF7
- MEASUREMENT_SETUP: human
METRIC_NAME: pIC50
# pIC50 is unitless: minus log10 of the molar concentration; print number only

Query block: // pIC50 lookup, key: C[C@H]1/C(=C\c2ccc([N+](=O)[O-])cc2)C(=O)/C(=C/c2ccc([N+](=O)[O-])cc2)CN1C(=O)[C@@H](N)Cc1ccccc1
Result block: 6.60

###

- Test system: OVCAR3
METRIC_NAME: pIC50
# pIC50 is unitless: minus log10 of the molar concentration; print number only

Query block: // pIC50 lookup, key: C=CC(=O)N1CC/C(=C\c2ccc(F)c([N+](=O)[O-])c2)C(=O)/C(=C/c2ccc(F)c([N+](=O)[O-])c2)C1
Result block: 7.74

###

- Test system: SKOV3
- EXPERIMENTAL_DETAILS: MTT cytotoxicity assay, SKOV3
- MEASUREMENT_SETUP: Homo sapiens, SK-OV-3, read-out: cytotoxicity IC50 SKOV3
Classify: satisfied when IC50 is strictly less than 40 nM; not satisfied when IC50 is not.

Query block: is_below(IC50, 40 nM) for N[C@@H](Cc1ccccc1)C(=O)N1C/C(=C\c2ccc([N+](=O)[O-])cc2)C(=O)/C(=C/c2ccc([N+](=O)[O-])cc2)C1 [RA183, reference compound] ?
Result block: not satisfied

Query block: is_below(IC50, 40 nM) for CC1/C(=C\c2ccc([N+](=O)[O-])cc2)C(=O)/C(=C/c2ccc([N+](=O)[O-])cc2)CN1C(=O)[C@H](Cc1ccccc1)NC(=O)CCl (stereo partly drawn) [RA414] ?
Result block: satisfied

Query block: is_below(IC50, 40 nM) for CC1/C(=C\c2ccccc2F)C(=O)/C(=C/c2ccccc2F)CN1C(=O)[C@@H](N)Cc1ccccc1 (mixture of isomers) [RA467] ?
Result block: not satisfied

Query block: is_below(IC50, 40 nM) for CC1/C(=C\c2ccc([N+](=O)[O-])cc2)C(=O)/C(=C/c2ccc([N+](=O)[O-])cc2)CN1C(=O)[C@@H](N)Cc1ccccc1 (mixture of isomers) [RA413] ?
Result block: not satisfied

Query block: is_below(IC50, 40 nM) for O=C(CCl)N[C@@H](Cc1ccccc1)C(=O)N1C/C(=C\c2ccc([N+](=O)[O-])cc2)C(=O)/C(=C/c2ccc([N+](=O)[O-])cc2)C1 [RA375] ?
Result block: satisfied

###

- EXPERIMENTAL_DETAILS: in vitro
- MEASUREMENT_SETUP: human
METRIC_NAME: IC50 (nM)
Please give a number only; it is taken to be in nM.

Query block: // IC50 lookup, key: O=C(CCl)N[C@@H](Cc1ccccc1)C(=O)N1C/C(=C\c2ccc([N+](=O)[O-])cc2)C(=O)/C(=C/c2ccc([N+](=O)[O-])cc2)C1
Result block: 41

Query block: // IC50 lookup, key: C[C@H]1/C(=C\c2ccc([N+](=O)[O-])cc2)C(=O)/C(=C/c2ccc([N+](=O)[O-])cc2)CN1C(=O)[C@@H](N)Cc1ccccc1
Result block: 41

###

- Tested on: ME180
- EXPERIMENTAL_DETAILS: MTT cytotoxicity assay, ME180
- Format: cell-based
- MEASUREMENT_SETUP: Homo sapiens, ME-180; Table 3; MTT, 48 hr; Cervical (HPV +ve); read-out: IC50 ME180
METRIC_NAME: IC50 (nM)
Please give a number only; it is taken to be in nM.

Query block: // IC50 lookup, key: N[C@@H](Cc1ccccc1)C(=O)N1C/C(=C\c2ccc(Cl)c(Cl)c2)C(=O)/C(=C/c2ccc(Cl)c(Cl)c2)C1 [RA190, reference compound]
Result block: 183
